Molecular target: DNA-dependent protein kinase catalytic subunit (Homo sapiens, UniProt P78527)
Sequence (P78527 whole entry): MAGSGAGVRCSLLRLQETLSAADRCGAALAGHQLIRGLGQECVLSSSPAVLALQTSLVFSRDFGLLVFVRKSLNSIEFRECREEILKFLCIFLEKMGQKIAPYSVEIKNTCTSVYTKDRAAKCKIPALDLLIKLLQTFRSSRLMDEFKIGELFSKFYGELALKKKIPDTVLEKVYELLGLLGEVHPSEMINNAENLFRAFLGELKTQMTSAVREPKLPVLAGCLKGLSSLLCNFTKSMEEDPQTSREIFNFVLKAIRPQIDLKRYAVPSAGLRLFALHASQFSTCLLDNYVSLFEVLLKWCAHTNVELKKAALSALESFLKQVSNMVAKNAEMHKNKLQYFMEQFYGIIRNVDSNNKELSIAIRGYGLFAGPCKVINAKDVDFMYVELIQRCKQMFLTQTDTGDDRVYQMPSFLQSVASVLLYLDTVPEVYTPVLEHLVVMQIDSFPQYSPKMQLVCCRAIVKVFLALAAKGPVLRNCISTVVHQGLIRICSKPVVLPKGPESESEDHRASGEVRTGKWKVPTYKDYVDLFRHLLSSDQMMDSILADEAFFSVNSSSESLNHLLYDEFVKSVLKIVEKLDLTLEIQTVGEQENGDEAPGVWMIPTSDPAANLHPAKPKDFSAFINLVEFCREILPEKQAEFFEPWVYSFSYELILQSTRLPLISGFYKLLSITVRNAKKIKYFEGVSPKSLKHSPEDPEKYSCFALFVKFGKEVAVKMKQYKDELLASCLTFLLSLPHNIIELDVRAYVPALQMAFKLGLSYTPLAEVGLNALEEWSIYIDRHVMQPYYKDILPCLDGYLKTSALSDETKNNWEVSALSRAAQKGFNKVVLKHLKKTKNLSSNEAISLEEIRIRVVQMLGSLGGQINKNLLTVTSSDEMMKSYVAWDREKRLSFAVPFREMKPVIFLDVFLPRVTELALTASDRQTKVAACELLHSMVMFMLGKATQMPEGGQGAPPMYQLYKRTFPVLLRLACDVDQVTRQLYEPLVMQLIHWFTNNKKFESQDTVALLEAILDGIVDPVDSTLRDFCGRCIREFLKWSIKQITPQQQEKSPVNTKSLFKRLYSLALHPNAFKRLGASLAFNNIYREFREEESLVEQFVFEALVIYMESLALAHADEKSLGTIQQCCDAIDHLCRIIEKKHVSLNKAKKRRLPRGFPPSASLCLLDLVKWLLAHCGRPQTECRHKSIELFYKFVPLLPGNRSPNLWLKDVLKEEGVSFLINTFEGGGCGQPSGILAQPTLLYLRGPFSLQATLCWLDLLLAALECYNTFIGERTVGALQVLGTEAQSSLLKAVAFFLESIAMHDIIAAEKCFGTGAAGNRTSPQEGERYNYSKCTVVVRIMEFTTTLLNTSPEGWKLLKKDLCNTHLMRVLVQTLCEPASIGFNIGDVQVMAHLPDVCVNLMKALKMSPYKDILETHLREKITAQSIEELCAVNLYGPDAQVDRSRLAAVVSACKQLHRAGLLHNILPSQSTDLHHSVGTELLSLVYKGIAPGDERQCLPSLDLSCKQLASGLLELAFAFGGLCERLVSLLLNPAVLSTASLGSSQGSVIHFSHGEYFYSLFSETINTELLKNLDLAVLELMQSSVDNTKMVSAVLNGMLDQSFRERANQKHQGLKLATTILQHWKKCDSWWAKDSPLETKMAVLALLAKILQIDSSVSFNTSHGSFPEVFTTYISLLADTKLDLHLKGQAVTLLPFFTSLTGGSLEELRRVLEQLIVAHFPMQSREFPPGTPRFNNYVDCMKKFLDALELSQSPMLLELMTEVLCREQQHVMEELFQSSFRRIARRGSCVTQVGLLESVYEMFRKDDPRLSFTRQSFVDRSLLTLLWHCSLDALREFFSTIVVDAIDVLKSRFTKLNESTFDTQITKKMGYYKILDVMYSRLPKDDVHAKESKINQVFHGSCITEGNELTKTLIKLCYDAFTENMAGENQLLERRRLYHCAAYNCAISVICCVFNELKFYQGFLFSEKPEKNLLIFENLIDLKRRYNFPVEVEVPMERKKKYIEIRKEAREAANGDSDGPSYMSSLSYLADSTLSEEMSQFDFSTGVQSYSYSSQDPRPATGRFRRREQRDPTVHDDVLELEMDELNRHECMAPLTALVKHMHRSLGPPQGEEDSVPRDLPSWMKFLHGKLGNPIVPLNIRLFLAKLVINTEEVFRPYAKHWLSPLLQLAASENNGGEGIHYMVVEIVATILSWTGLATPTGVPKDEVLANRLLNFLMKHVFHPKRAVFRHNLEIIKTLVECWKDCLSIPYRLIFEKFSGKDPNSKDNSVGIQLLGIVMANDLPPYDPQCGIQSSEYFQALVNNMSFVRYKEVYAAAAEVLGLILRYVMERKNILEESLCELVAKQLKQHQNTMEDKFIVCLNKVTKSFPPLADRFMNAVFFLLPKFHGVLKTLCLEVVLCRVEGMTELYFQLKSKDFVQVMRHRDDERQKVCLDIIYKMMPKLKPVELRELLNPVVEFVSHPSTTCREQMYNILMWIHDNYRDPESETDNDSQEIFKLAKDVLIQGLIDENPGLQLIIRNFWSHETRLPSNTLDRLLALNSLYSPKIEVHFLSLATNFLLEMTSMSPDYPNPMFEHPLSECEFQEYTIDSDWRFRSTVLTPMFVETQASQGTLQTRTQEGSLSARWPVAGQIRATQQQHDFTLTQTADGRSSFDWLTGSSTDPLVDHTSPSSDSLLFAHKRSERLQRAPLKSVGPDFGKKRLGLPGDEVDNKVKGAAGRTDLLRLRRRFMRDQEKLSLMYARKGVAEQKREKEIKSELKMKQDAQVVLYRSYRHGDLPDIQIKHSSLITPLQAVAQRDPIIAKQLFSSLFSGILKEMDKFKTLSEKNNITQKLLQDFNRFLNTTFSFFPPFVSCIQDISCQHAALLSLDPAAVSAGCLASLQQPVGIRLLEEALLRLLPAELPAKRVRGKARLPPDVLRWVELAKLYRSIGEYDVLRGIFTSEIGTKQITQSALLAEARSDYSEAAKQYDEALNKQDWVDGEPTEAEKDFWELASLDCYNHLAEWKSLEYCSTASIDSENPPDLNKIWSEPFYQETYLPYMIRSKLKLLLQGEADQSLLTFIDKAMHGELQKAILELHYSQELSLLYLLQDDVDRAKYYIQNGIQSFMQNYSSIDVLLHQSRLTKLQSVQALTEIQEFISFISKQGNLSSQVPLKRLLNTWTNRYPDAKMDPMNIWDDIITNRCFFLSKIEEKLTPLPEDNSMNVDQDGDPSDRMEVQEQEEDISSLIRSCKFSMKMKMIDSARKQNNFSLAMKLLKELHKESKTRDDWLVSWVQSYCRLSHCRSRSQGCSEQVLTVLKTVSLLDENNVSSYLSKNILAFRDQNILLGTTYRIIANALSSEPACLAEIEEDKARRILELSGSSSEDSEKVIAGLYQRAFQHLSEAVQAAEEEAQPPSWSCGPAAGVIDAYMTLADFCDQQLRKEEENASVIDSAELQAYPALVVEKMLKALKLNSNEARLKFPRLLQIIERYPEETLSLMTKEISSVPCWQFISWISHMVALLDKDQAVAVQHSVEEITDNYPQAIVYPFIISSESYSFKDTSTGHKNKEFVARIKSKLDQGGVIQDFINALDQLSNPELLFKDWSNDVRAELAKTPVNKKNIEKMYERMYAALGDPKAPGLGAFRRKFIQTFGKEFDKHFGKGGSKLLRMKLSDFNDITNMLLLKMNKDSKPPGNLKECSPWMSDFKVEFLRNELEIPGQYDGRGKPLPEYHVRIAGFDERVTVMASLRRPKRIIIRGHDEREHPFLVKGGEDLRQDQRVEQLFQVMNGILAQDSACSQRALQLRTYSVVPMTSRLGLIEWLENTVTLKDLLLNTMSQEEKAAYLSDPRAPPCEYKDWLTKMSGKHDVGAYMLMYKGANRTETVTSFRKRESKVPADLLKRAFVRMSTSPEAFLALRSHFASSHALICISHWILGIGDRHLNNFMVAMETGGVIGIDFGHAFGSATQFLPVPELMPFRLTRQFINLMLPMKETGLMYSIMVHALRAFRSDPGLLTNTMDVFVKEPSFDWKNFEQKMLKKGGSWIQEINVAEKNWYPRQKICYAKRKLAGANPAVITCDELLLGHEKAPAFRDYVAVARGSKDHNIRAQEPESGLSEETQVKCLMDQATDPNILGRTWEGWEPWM
Assay: Inhibition of human DNA-PK using EPPLSQEAFADLWKK as substrate at 10 uM by HTRF assay
Assay metric: inhibition
In your response, put the unit directly after the numeric value.

Answered examples (3):
- O=c1nc(N2CCOCC2)oc2ccc(-c3cccnc3)cc12: 6%
- O=c1nc(N2CCOCC2)oc2ccc(-c3ccc(CO)cc3)cc12: 11%
- O=c1nc(N2CCOCC2)oc2ccc(-c3cccc4c3oc3ccccc34)cc12: 12%

Please examine the following record next.
Record for COc1ccc(-c2ccc3oc(N4CCOCC4)nc(=O)c3c2)cc1 under target or system DNA-dependent protein kinase catalytic subunit (Homo sapiens, UniProt P78527): inhibition reported as 8%
